- Test system: K4 kissing-loop RNA reporter;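 also: bound reporter read as fluorescence of individual clusters on recovered sequencing chips by microscopy, with normalized cluster intensities fitted with a binding model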
- measurement-notes: apparent KD of K4 kissing-loop reporter; higher = weaker reporter binding
- condition-description: Eterna round: R107; input ligand: none
observed-property: apparent KD of K4 kissing-loop reporter
Include the unit after the number when you answer.

A selection of reference data follows.
primary-sequence | apparent KD of K4 kissing-loop reporter
GACAAUUCCGCUUCCGAGCAUACUUGACUGAAGGAUAUCAUCGUGUUGAGAAGGUCAGUAACAGAGAGUGAUGUUCUUUGAGGUC [theeternabot_sameState_KL_FMN_A_19] | 234 nM
AUACAGCGAAGCGCUAGUGAUGUUAGCGAAGGAGCGACUCAGGAGUCAGGUAGGUCGCGCUAAACAGGUUACGAGAGUAACCAGU [Arg A Ex t1] | 140 nM
UGGAGUUGACGAAAAGUCAACUCCUGAGAAGGAGCGGACGAAAGUCCAGGUAGGUCGCUCACUACCAGUGAUGUUGGUACUUGAA | 259 nM
CGCGCGCGCGCGCGCGCGCGCGCGCGAAGUGAGGAUAUUUAGGGAGAAAGAAGGCACUAUAAAAUAUAGUGAUGUUAUAUAAGGG [SSFMNA.B] | 720 nM
CGAUAGGGAAGUCGAUUGCUCACUGGUAAACGAGGACCGGUACGGCCGCCACUCGGGUCCAGUGAUGUUGGACUUUGUGGCGGGC [Edladian] | 104 nM
UAUCUAUGCUCGGCCGCCACUAGGACCGGGUAGUCUCUAGUGAUGUUAGUCUCUACGGCCGCCACUAGGACCGGGAGUGUAGAUA [KL-SSTryp-B16 #DoubleAptamer] | 224 nM

(Q) // query apparent KD of K4 kissing-loop reporter value for entry CAAAUAAAUAUAAUUGAUAAGUGAUGUUGGCGAGGACCGGUACGGCCGCCACUCGAUAUCGGUCCAUUAACCGAGUGAUGUUUGG [Default title]
(A) 81.1 nM

(Q) // query apparent KD of K4 kissing-loop reporter value for entry CGAGCUUCCUGGGAUACCAGUCGGAGUCUCAGAGCUCGGAGUGAUGUUCUGGGAUGUUUCGGCCCUUGGCAGCUCUGGGACUCCU [#2 Exclusion - Theophylline B Attempt #20 (HarryS)]
(A) 767 nM

(Q) // query apparent KD of K4 kissing-loop reporter value for entry AAGUGGGAACGGCCCAAUAAAGUGUUUGUCAAGGAUAUUAUUCACAUAAGAAGGUGACAGACCACCUCCGGAGUGAUGUUUUGGA [theeternabot_sameState_KL_FMN_A_42]
(A) 719 nM

(Q) // query apparent KD of K4 kissing-loop reporter value for entry UGAUAGGACAGAAGGAGCGGAAGUGAUGUUUCCAAAAGGAUAAGGUGUCAAAAGACACCCUUCCAGGUAGGUCGCUGUCCUAUCU [ArgBX 13 #Palindromic #SwitchBubble #StaticStem]
(A) 134 nM

(Q) // query apparent KD of K4 kissing-loop reporter value for entry AAGUCAUAUAGAAGGAGCGUGUUUUUUAAUUUGUUUUCAUGAUCGAGUGAUGUUCGAUAUACACAGGUAGGUCGCUGUAUAAUAA [hbob_SS_Arginine_B_2t142]
(A) 131 nM

(Q) // query apparent KD of K4 kissing-loop reporter value for entry UGUACCGAGUGAGGAUAUGUCGUCGAAAGACGAAAUGGAGUGAUGUUCCUUAAACUGCGAAAGCAGACAGAAGGUACUUGGUACU [FmnBS 29 G11+U75]
(A) 302 nM

The measured values listed here are drawn from the supplement of paper PMC9170038.
